glycan array binding signal (z-score) overview
Target: Gal(b1-4)GlcNAc(b1-3)Gal(b1-4)GlcNAc(b1-3)Gal(b1-4)GlcNAc(b1-3)Gal(b1-4)GlcNAc(b1-2)[Gal(b1-4)GlcNAc(b1-3)Gal(b1-4)GlcNAc(b1-3)Gal(b1-4)GlcNAc(b1-3)Gal(b1-4)GlcNAc(b1-6)]Man(a1-6)[Gal(b1-4)GlcNAc(b1-3)Gal(b1-4)GlcNAc(b1-3)Gal(b1-4)GlcNAc(b1-3)Gal(b1-4)GlcNAc(b1-2)Man(a1-3)]Man(b1-4)GlcNAc(b1-4)[Fuc(a1-6)]GlcNAc
Test: glycan array binding signal (z-score within array); higher = stronger binding
Conditions: glycan notation: IUPAC condensed, linker removed
Only a selection was taken, and the strongest signals are over-represented in it overall.
Write the value as a bare number.

- Binder: "Gal 7 (Homo sapiens) (protein) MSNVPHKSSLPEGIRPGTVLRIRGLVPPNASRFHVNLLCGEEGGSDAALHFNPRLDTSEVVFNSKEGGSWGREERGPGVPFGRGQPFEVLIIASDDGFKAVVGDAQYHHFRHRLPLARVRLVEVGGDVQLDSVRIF"
  Readout Number: 5.2

Ask: Record request: glycan array binding signal (z-score) value, item EULS2 M3 (Oryza sativa) (protein) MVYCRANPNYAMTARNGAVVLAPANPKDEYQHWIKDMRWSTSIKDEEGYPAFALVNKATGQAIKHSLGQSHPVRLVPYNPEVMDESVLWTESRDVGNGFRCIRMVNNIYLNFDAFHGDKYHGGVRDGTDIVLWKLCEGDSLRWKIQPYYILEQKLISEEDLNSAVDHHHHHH
Result: 0.461
